- Tested on: late erythroid cells (Eryth II)
- Protocol Notes: MLTA, ErythII: concentration-response and QSP model fit
- Format: cell-based, human
- Details: Homo sapiens, 144 h; dose 0.2 nM, 6 days, normalized to vehicle control; read-out: ErythII normalized cell count
Parameter Measured: activity at 0.0002 µM (%)
Number in %, nothing else.

Per the reported late erythroid cells (Eryth II) data, `CCN1CCN(Cc2ccc(Nc3ncc(F)c(-c4cc(F)c5nc(C)n(C(C)C)c5c4)n3)nc2)CC1` has activity at 0.0002 µM of 96.2

Per the reported late erythroid cells (Eryth II) data, `CC(=O)c1c(C)c2cnc(Nc3ccc(N4CCNCC4)cn3)nc2n(C2CCCC2)c1=O` has activity at 0.0002 µM of 89

Per the reported late erythroid cells (Eryth II) data, `CN(C)C(=O)c1cc2cnc(Nc3ccc(N4CCNCC4)cn3)nc2n1C1CCCC1` has activity at 0.0002 µM of 84.3

Per the reported late erythroid cells (Eryth II) data, `CS(=O)(=O)N1CCN(Cc2cc3nc(-c4cccc5[nH]ncc45)nc(N4CCOCC4)c3s2)CC1` has activity at 0.0002 µM of 94.6

Per the reported late erythroid cells (Eryth II) data, O=C1CCC(N2C(=O)c3ccccc3C2=O)C(=O)N1 (centres unmarked) [thalidomide] has activity at 0.0002 µM of 94.3

Per the reported late erythroid cells (Eryth II) data, `CC(=O)O[C@H]1C(=O)[C@@]2(C)[C@H]([C@H](OC(=O)c3ccccc3)[C@]3(O)C[C@H](OC(=O)[C@H](O)[C@@H](NC(=O)c4ccccc4)c4ccccc4)C(C)=C1C3(C)C)[C@]1(OC(C)=O)CO[C@@H]1C[C@@H]2O` has activity at 0.0002 µM of 90.9

Per the reported late erythroid cells (Eryth II) data, `CC(=O)O[C@@]12CO[C@@H]1C[C@H](O)[C@@]1(C)C(=O)[C@H](O)C3=C(C)[C@@H](OC(=O)[C@H](O)[C@@H](NC(=O)OC(C)(C)C)c4ccccc4)C[C@@](O)([C@@H](OC(=O)c4ccccc4)[C@H]21)C3(C)C` has activity at 0.0002 µM of 91.6

Per the reported late erythroid cells (Eryth II) data, `CCc1cnn2c(NCc3ccc[n+]([O-])c3)cc(N3CCCC[C@H]3CCO)nc12` has activity at 0.0002 µM of 90

---

Please provide measured activity at 0.005 µM for the entries that follow.
- Test system: late erythroid cells (Eryth II)
- Protocol Notes: MLTA, ErythII: concentration-response and QSP model fit
- Format: cell-based, human
- Details: Homo sapiens, 144 h; dose 5 nM, 6 days, normalized to vehicle control; read-out: ErythII normalized cell count
State the value, then name its unit.

Per the reported late erythroid cells (Eryth II) data, CCN1CCN(Cc2ccc(Nc3ncc(F)c(-c4cc(F)c5nc(C)n(C(C)C)c5c4)n3)nc2)CC1 [abemaciclib] has activity at 0.005 µM of 106%

Per the reported late erythroid cells (Eryth II) data, CC(=O)O[C@@]12CO[C@@H]1C[C@H](O)[C@@]1(C)C(=O)[C@H](O)C3=C(C)[C@@H](OC(=O)[C@H](O)[C@@H](NC(=O)OC(C)(C)C)c4ccccc4)C[C@@](O)([C@@H](OC(=O)c4ccccc4)[C@H]21)C3(C)C [docetaxel] has activity at 0.005 µM of 0.449%

Per the reported late erythroid cells (Eryth II) data, CCc1cnn2c(NCc3ccc[n+]([O-])c3)cc(N3CCCC[C@H]3CCO)nc12 [dinaciclib] has activity at 0.005 µM of 98.7%

Per the reported late erythroid cells (Eryth II) data, CS(=O)(=O)N1CCN(Cc2cc3nc(-c4cccc5[nH]ncc45)nc(N4CCOCC4)c3s2)CC1 [pictilisib] has activity at 0.005 µM of 90%

Per the reported late erythroid cells (Eryth II) data, CN(C)C(=O)c1cc2cnc(Nc3ccc(N4CCNCC4)cn3)nc2n1C1CCCC1 [ribociclib] has activity at 0.005 µM of 113%

Per the reported late erythroid cells (Eryth II) data, CC(=O)O[C@H]1C(=O)[C@@]2(C)[C@H]([C@H](OC(=O)c3ccccc3)[C@]3(O)C[C@H](OC(=O)[C@H](O)[C@@H](NC(=O)c4ccccc4)c4ccccc4)C(C)=C1C3(C)C)[C@]1(OC(C)=O)CO[C@@H]1C[C@@H]2O [paclitaxel] has activity at 0.005 µM of 56.5%

Per the reported late erythroid cells (Eryth II) data, CC(=O)c1c(C)c2cnc(Nc3ccc(N4CCNCC4)cn3)nc2n(C2CCCC2)c1=O [palbociclib] has activity at 0.005 µM of 99.1%

Per the reported late erythroid cells (Eryth II) data, O=C1CCC(N2C(=O)c3ccccc3C2=O)C(=O)N1 (centres unmarked) [thalidomide] has activity at 0.005 µM of 105%

---

- Tested on: early erythroid cells (Eryth I)
- Protocol Notes: MLTA, ErythI: concentration-response and QSP model fit
- Type: cell-based, human
- Details: Homo sapiens, 144 h; dose 100 nM, 6 days, normalized to vehicle control; read-out: ErythI normalized cell count
Mark 1 for reported activity at 0.1 µM of 20% or greater; mark -1 for anything smaller.

Query: Item `CS(=O)(=O)N1CCN(Cc2cc3nc(-c4cccc5[nH]ncc45)nc(N4CCOCC4)c3s2)CC1` with activity at 0.1 µM of 20% or above?
Response: 1

Query: Item O=C1CCC(N2C(=O)c3ccccc3C2=O)C(=O)N1 (centres unmarked) [thalidomide] with activity at 0.1 µM of 20% or above?
Response: 1

Query: Item `CC(=O)O[C@@]12CO[C@@H]1C[C@H](O)[C@@]1(C)C(=O)[C@H](O)C3=C(C)[C@@H](OC(=O)[C@H](O)[C@@H](NC(=O)OC(C)(C)C)c4ccccc4)C[C@@](O)([C@@H](OC(=O)c4ccccc4)[C@H]21)C3(C)C` with activity at 0.1 µM of 20% or above?
Response: -1

Query: Item `CC(=O)O[C@H]1C(=O)[C@@]2(C)[C@H]([C@H](OC(=O)c3ccccc3)[C@]3(O)C[C@H](OC(=O)[C@H](O)[C@@H](NC(=O)c4ccccc4)c4ccccc4)C(C)=C1C3(C)C)[C@]1(OC(C)=O)CO[C@@H]1C[C@@H]2O` with activity at 0.1 µM of 20% or above?
Response: -1

Query: Item `CCc1cnn2c(NCc3ccc[n+]([O-])c3)cc(N3CCCC[C@H]3CCO)nc12` with activity at 0.1 µM of 20% or above?
Response: -1

Query: Item `CN(C)C(=O)c1cc2cnc(Nc3ccc(N4CCNCC4)cn3)nc2n1C1CCCC1` with activity at 0.1 µM of 20% or above?
Response: 1

Query: Item `CC(=O)c1c(C)c2cnc(Nc3ccc(N4CCNCC4)cn3)nc2n(C2CCCC2)c1=O` with activity at 0.1 µM of 20% or above?
Response: 1

---

- Test system: lymphocyte progenitors (LymP)
- Protocol Notes: MLTA, LymP: concentration-response and QSP model fit
- Format: cell-based, human
- Details: Homo sapiens, Lymphocyte, 144 h; parameter from QSP model fitting; read-out: Emax_drug_LymP
Parameter Measured: Emax (%)
Number in %, nothing else.

Per the reported lymphocyte progenitors (LymP) data, `Nc1ccn([C@@H]2O[C@H](CO)[C@@H](O)[C@@H]2O)c(=O)n1` has Emax of 0.032

Per the reported lymphocyte progenitors (LymP) data, `CC(=O)c1c(C)c2cnc(Nc3ccc(N4CCNCC4)cn3)nc2n(C2CCCC2)c1=O` has Emax of 0.032

Per the reported lymphocyte progenitors (LymP) data, `CCN1CCN(Cc2ccc(Nc3ncc(F)c(-c4cc(F)c5nc(C)n(C(C)C)c5c4)n3)nc2)CC1` has Emax of 0.16

Per the reported lymphocyte progenitors (LymP) data, `CCc1cnn2c(NCc3ccc[n+]([O-])c3)cc(N3CCCC[C@H]3CCO)nc12` has Emax of 115

Per the reported lymphocyte progenitors (LymP) data, Nc1cccc2c1CN(C1CCC(=O)NC1=O)C2=O (stereo not drawn) [Lenalidomide] has Emax of 0.0004

Per the reported lymphocyte progenitors (LymP) data, `CS(=O)(=O)N1CCN(Cc2cc3nc(-c4cccc5[nH]ncc45)nc(N4CCOCC4)c3s2)CC1` has Emax of 0.032

---

- System: granulocyte progenitor (Gran-lin prog)
- Protocol Notes: MLTA, GranP: concentration-response and QSP model fit
- Assay type: cell-based, human
- Details: Homo sapiens, 144 h; dose 0.2 nM, 6 days, normalized to vehicle control; read-out: GranPs normalized cell count
Parameter Measured: activity at 0.0002 µM (%)
Number in %, nothing else.

Briefly, activity at 0.0002 µM measured for `CCN1CCN(Cc2ccc(Nc3ncc(F)c(-c4cc(F)c5nc(C)n(C(C)C)c5c4)n3)nc2)CC1` : 95.1

Briefly, activity at 0.0002 µM measured for `CC(=O)c1c(C)c2cnc(Nc3ccc(N4CCNCC4)cn3)nc2n(C2CCCC2)c1=O` : 98.2

Briefly, activity at 0.0002 µM measured for `CN(C)C(=O)c1cc2cnc(Nc3ccc(N4CCNCC4)cn3)nc2n1C1CCCC1` : 87.1

Briefly, activity at 0.0002 µM measured for `CCc1cnn2c(NCc3ccc[n+]([O-])c3)cc(N3CCCC[C@H]3CCO)nc12` : 97.3
